Reported values of ΔTm for individual entries
target: Mitogen-activated protein kinase 1 (Homo sapiens) (UniProt P28482); conditions: Compound concentration 20.0 uM
Sequence (P28482 whole entry): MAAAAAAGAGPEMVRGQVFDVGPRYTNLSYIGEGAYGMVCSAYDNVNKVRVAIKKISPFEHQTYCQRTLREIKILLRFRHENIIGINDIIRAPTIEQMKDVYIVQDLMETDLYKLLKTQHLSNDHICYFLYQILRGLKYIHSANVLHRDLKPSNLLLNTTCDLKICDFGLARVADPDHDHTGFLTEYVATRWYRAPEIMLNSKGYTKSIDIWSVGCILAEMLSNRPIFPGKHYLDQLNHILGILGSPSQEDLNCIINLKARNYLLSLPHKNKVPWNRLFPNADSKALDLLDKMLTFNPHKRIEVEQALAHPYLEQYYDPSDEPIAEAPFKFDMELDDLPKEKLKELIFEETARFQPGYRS
Description: Thermal Shift Assay. Domain: start/stop: M1-S360

Sample records with ΔTm:
1) Nc1ccccc1NC(=O)c1ccc(CNc2nccc(-c3cccnc3)n2)cc1 | 0.18 °C
2) CCn1c(=O)c(C)cn(Cc2nnc(-c3ccc(F)c(O)c3F)s2)c1=O | -0.2 °C
3) CS(=O)(=O)Nc1ccc2oc3c(OC(F)F)ccc(C(=O)Nc4c(Cl)cncc4Cl)c3c2c1 | 0.24 °C

Reported ΔTm ( N#C[C@@H]1CCCN1C(=O)[C@@H]1CCCN1C(=O)CCCc1ccccc1 ) = 0.11 °C

Reported ΔTm ( O=C(C1CC1)N1CCN(Cn2sc3ccccc3c2=O)CC1 ) = -4.19 °C

====

target: Glycogen synthase kinase-3 beta (Homo sapiens) (UniProt P49841); details: Compound concentration 20.0 uM
Sequence (P49841 whole entry, looked up): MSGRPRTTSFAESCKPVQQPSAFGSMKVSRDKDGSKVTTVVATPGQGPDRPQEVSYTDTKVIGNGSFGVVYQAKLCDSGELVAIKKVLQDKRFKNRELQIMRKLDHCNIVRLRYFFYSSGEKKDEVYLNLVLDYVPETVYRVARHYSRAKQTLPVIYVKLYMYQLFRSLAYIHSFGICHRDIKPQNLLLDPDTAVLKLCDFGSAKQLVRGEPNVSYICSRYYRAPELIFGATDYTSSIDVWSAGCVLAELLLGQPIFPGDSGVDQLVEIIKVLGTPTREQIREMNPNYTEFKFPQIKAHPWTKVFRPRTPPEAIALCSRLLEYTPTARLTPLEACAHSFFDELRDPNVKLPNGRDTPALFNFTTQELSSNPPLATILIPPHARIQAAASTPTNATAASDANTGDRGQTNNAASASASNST
Description: Thermal Shift Assay. Domain: start/stop: M26-R383
Assign yes (1) whenever ΔTm does not fall below -0.2 °C; assign no (0) whenever it does.

1) O=C(NO)c1ccc(CN2CCCc3cc(Cl)ccc32)cc1 | yes (1)
2) C[C@@H](COCCC(=O)N1CCN(c2ncc(C(F)(F)F)cn2)CC1)Nc1cn[nH]c(=O)c1C(F)(F)F | yes (1)
3) O=C(NCCCn1ccnc1)c1cc2nc(-c3ccccc3)cc(-c3ccccc3)n2n1 | no (0)
4) CNC(=O)O[C@H]1COc2ccc(N3CCN(C4COC4)CC3)cc2[C@@H]1NC(=O)c1ccc(F)cc1 | no (0)
5) C[C@H](CN[C@@H](C(=O)Nc1ccc(-c2cnn(C)c2)cn1)c1ccccc1)c1ccc(C#N)cc1 | no (0)
6) O=C(NC1CCC1)c1ccc2nc(-c3cccc(NS(=O)(=O)NCCN4CCCCC4)c3)cn2c1 | no (0)
7) CCn1c(=O)c(C)cn(Cc2nnc(-c3ccc(F)c(O)c3F)s2)c1=O | yes (1)
8) CCn1c(=O)c(C)cn(Cc2nnc(-c3ccc(F)c(OC)c3F)s2)c1=O | yes (1)

Attention now turns to another entry.
Form field: ΔTm at least -0.2 °C? Entry: O=C(c1cc(Cc2n[nH]c(=O)c3ccccc23)ccc1F)N1CCn2nc(C(F)(F)F)nc2C1
no (0)

====

biological target: Glycogen synthase kinase-3 beta (Homo sapiens) (UniProt P49841); conditions: Compound concentration 20.0 uM
Classes based on ΔTm: lower band = under -0.7 °C, central band = from -0.7 °C up to 0.4 °C, upper band = 0.4 °C and over

Exam item: assign CNc1nccc(CN(CC2CCNCC2)S(=O)(=O)c2ccc(S(=O)(=O)N(Cc3ccc(Cl)cc3)C3CCCC3)cc2)n1 to the correct category.
upper band

Exam item: assign NS(=O)(=O)OC[C@H]1C[C@@H](Nc2ccnc3cc(-c4cccc(SC(F)(F)F)c4)nn23)[C@H](O)[C@@H]1O to the correct category.
lower band

Exam item: assign Cn1nc2c(=O)n(CC3(O)CCN(C(=O)C[C@H](c4ccccc4)C(F)(F)F)CC3)cnc2c1-c1ccc(CN)cc1 to the correct category.
central band

====

molecular target: Tyrosine-protein kinase ABL1 (Homo sapiens) (UniProt P00519); details: Compound concentration 20.0 uM
Sequence (P00519 whole entry): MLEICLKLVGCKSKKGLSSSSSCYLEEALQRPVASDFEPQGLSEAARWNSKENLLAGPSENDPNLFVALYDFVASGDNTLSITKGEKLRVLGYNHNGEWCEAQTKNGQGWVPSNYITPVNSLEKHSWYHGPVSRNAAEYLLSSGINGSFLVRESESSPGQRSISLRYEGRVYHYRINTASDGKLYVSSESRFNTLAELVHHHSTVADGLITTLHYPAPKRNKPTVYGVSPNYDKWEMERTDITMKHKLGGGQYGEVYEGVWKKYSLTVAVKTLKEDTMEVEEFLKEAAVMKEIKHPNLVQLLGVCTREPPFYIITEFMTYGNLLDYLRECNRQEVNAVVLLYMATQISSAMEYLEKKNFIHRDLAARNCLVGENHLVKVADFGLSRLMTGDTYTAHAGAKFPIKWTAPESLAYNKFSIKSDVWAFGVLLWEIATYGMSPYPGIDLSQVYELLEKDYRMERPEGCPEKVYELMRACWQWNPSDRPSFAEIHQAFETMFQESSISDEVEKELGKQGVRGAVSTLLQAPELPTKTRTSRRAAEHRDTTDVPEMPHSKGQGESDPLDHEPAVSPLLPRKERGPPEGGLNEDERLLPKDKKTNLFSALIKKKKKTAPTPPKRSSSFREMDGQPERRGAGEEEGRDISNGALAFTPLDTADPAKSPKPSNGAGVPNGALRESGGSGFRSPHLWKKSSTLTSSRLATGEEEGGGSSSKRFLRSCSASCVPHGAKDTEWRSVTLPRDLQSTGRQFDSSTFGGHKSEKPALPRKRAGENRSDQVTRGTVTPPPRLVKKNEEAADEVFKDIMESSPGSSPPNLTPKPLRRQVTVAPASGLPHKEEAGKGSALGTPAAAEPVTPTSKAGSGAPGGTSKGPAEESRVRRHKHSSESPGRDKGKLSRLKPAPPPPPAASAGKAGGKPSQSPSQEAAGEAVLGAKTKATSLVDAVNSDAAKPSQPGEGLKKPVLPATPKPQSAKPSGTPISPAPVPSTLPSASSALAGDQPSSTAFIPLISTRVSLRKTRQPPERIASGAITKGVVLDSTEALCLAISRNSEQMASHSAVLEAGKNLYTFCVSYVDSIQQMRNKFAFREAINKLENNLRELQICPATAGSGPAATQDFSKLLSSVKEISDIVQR
Description: Thermal Shift Assay. Domain: start/stop: S229-K512
Reported values of ΔTm for individual entries
Report the figure in °C without appending any unit label.

1. C[C@]1(c2nc3c(C(N)=O)cccc3[nH]2)CCCN1 | 0.02
2. Cc1ncsc1-c1ccc(CNC(=O)[C@@H]2C[C@@H](O)CN2C(=O)[C@@H](NC(=O)COCCOCCOc2ccc(-c3ccc4ncnc(Nc5ccc(OCc6cccc(F)c6)c(Cl)c5)c4c3)cc2)C(C)(C)C)cc1 | 2.92
3. C=CCc1cccc(CNc2nc3ccccc3n2CCC)c1O | 0.28

Reported ΔTm ( CC(C)C(=O)c1c(C(C)C)nn2ccccc12 ) = 0.8

Reported ΔTm ( CCCCCCNC(=O)n1cc(Cl)c(=O)n(C(=O)OCC(C)C)c1=O ) = 0.44

Reported ΔTm ( Nc1ccccc1NC(=O)CCCCCC(=O)Nc1ccccc1 ) = 0.27

Reported ΔTm ( C=CCn1c(N[C@@H]2C[C@H](c3ccc(OCc4ccccc4)cc3)CN(C)C2)nc2cc[nH]c2c1=O ) = 0.69

Reported ΔTm ( O=C(CN1CCN(c2ccc(F)cn2)CC1)Nc1nc2c(s1)CCCC2 ) = 0.42

Reported ΔTm ( Nc1ncnc2nc(-c3ccc(N4CCOCC4)nc3)cc(-c3cccc(Br)c3)c12 ) = 4.32

====

target: Glycogen synthase kinase-3 beta (Homo sapiens) (UniProt P49841); settings: Compound concentration 20.0 uM
Quantity name: ΔTm (°C)
Report the figure in °C without appending any unit label.

ΔTm on Glycogen synthase kinase-3 beta (Homo sapiens) (UniProt P49841) for COc1cc(C(=O)N2C[C@H](N)CC[C@@H]2C)cc2nc(-c3cc4cccnc4n3CC3CC3)n(C)c12 is -1.31

ΔTm on Glycogen synthase kinase-3 beta (Homo sapiens) (UniProt P49841) for CN(CCC(Oc1ccc(-c2ccccc2)cc1)c1ccc(F)cc1)CC(=O)O (stereo not drawn) is -0.74

ΔTm on Glycogen synthase kinase-3 beta (Homo sapiens) (UniProt P49841) for CCCCOc1c(OC)cc(C(=O)NCC2(N(C)C)CCOCC2)cc1OC is -1.71

ΔTm on Glycogen synthase kinase-3 beta (Homo sapiens) (UniProt P49841) for CCOc1ccc(S(=O)(=O)Nc2ccc(Cl)cc2C#Cc2cnc(C(=O)O)cc2OC)c2ncccc12 is -2.42

ΔTm on Glycogen synthase kinase-3 beta (Homo sapiens) (UniProt P49841) for CC(C)N(C(=O)c1cc(F)ccc1Oc1cncnc1N1CC2(CCN(C[C@H]3CC[C@H](NS(C)(=O)=O)CC3)CC2)C1)C(C)C is -0.7

ΔTm on Glycogen synthase kinase-3 beta (Homo sapiens) (UniProt P49841) for CC(=O)OCCN1C(=O)c2c(C)nc3ccc(S(=O)(=O)N4CCOCC4)cc3c2C1=O is -0.73

====

molecular target: Mitogen-activated protein kinase 1 (Homo sapiens); conditions: Compound concentration 20.0 uM
Reported values of ΔTm for individual entries
Report the figure in °C without appending any unit label.

Sample records with ΔTm:
1) O=C(NCC1(c2nc(-c3ccccc3)cs2)CCOCC1)c1cccc(-c2noc(C(F)(F)F)n2)c1 | -4.88
2) CCC[C@@H]1CNCc2c1[nH]c(=O)c(C#N)c2N1CCC2(CC1)CC2 | -0.21
3) O=C(CN1CCN(C(=O)c2ccco2)CC1)Nc1cc(C(F)(F)F)ccc1Cl | 0.07
4) Cc1cc2cc(NS(=O)(=O)c3ccc(C#N)cc3)ccc2n(C)c1=O | -3
5) Cc1cc(OCCCNCCC(N)=O)ccc1Cc1c(O[C@@H]2O[C@H](CO)[C@@H](O)[C@H](O)[C@H]2O)n[nH]c1C(C)C | 0.24
6) C[C@H]1CCCN1Cc1nc2cc(NC(=O)c3ccc4c(cnn4C)c3)ccc2[nH]1 | 0.27

Reported ΔTm ( Cc1ncsc1-c1ccc(CNC(=O)[C@@H]2C[C@@H](O)CN2C(=O)[C@@H](NC(=O)COCCOCCOCCNC(=O)C[C@@H]2N=C(c3ccc(Cl)cc3)c3c(sc(C)c3C)-n3c(C)nnc32)C(C)(C)C)cc1 ) = 0

Reported ΔTm ( COC[C@H](NC(=O)c1ccn(S(C)(=O)=O)c1)C(=O)Nc1nc(-c2cccc(-c3ccn(C)n3)c2)cs1 ) = 0.35

====

Reported values of ΔTm for individual entries
biological target: Tyrosine-protein kinase ABL1 (Homo sapiens) (UniProt P00519); conditions: Compound concentration 20.0 uM
Residues, ends and D or L forms follow the SMILES beside them. *: point of attachment. CH2Cl = ClC*
Report the figure in °C without appending any unit label.

Sample records with ΔTm:
1. CC(c1cccc2ccccc12)n1cnc2c(=O)[nH]c(Cc3ccccc3)nc21 (stereo unspecified) | 0.22
2. CC(=O)N[C@@H](Cc1ccccc1)C(=O)N[C@@H](CC(C)C)C(=O)N[C@H](C(=O)N[C@@H](CC(=O)O)C(=O)CCl)[C@@H](C)O (Ac-FLTD-CH2Cl) | 0.28
3. OC1CN=C2c3ccn([C@@H]4O[C@H]([C@H](O)c5ccc(Cl)cc5)[C@@H](O)[C@H]4O)c3N=CN21 (stereo partly specified) | 0.73
4. OC[C@H]1O[C@@H](c2ccc(Cl)c(Cc3ccc(O[C@H]4CCOC4)cc3)c2)[C@H](O)[C@@H](O)[C@@H]1O | 0.58
5. COc1ccc(C(=O)N[C@H](C(=O)N2CCC[C@H]2C(=O)N[C@H](C(=O)C(F)(F)F)C(C)C)C(C)C)cc1 | 0.01
6. CCC(=O)N1CCOc2c(cc(-c3cc(OC)cc(OC)c3)cc2C(=O)N[C@H]2CCCN(C)C2)C1 | 0.72

Reported ΔTm ( C[C@@H]1CCC[C@H](C)N1NC(=O)c1ccc(Cl)c(S(N)(=O)=O)c1 ) = 0.07

Reported ΔTm ( CCC(=O)N[C@H]1CC[C@@H](C(=O)N(C)c2ccc(-c3nc4ccccc4o3)cc2)C1 ) = 0.54

Reported ΔTm ( Cc1nc(-c2cnn(C)c2-c2ccc(C(F)(F)F)cn2)c2c(N3CCC3)ncnn12 ) = 0.74
